Biological target: 11beta-HSD1 (Homo sapiens, UniProt P28845)
Sequence (P28845 whole entry): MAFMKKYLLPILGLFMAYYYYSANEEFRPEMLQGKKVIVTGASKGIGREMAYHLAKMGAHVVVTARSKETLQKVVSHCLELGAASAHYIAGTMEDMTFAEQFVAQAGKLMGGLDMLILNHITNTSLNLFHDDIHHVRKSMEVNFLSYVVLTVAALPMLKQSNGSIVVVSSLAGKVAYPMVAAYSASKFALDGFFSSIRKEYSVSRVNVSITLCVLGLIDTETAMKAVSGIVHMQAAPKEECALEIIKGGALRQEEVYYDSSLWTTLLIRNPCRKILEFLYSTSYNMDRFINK
Test: In vitro inhibition of recombinant human 11beta-HSD1 (microsomal Scintillation Proximity Assay)
Type: biochemical
Parameters: made in house; microsomal fraction used as enzyme source
Conditions: microsomes from HEK 293 EBNA cells, 250 nM [3H]-cortisone, 500 μM NADPH, pH 6.5, room temperature
// classify: if (IC50 < 500 nM) fulfilled else not fulfilled

Record excerpt, results attached:
>  <COMPOUND>
N#Cc1ccccc1-c1c(O)nc(SCc2ccccc2Cl)c2c1CCCC2 [Example 292]

>  <CLASSIFICATION>
fulfilled

$$$$
>  <COMPOUND>
N#Cc1c(O)nc(SCc2cnccc2Cl)c2cc(F)ccc12 [Example 164]

>  <CLASSIFICATION>
fulfilled

$$$$
>  <COMPOUND>
N#Cc1ccncc1CSc1nc(O)c(C#N)c2ccc(F)cc12 [Example 170]

>  <CLASSIFICATION>
fulfilled

$$$$
>  <COMPOUND>
Oc1nc(SCc2cccc(Cl)c2)c2ccccc2c1Cl [Example 115]

>  <CLASSIFICATION>
not fulfilled

$$$$

We now examine a further compound.
In: Quick check: does O=C(O)c1c(O)nc(SCc2ccccc2Cl)c2c1CCCC2 [Example 6] have IC50 under 500 nM?
Out: fulfilled

Where these numbers come from: patent US8318941B2
